All values here come from the supplement of paper PMC6555819.

Tested on: RXRa homodimer (NR concentration 180 nM)
experiment-description: PBM binding z-score (relative to random genomic background probes); higher = stronger binding; sequences stand for … in GC…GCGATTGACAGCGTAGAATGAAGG
Quick reference: PBM binding z-score of the listed items.
parameter: PBM binding z-score

In [3]: df
Out[3]:
                   biopolymer_sequence            parameter  numeric_result
 0  CCAGACAGGTGAGAAGGTAATTCAGCCTCGATTA  PBM binding z-score            0.24
 1  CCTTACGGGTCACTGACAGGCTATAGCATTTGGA  PBM binding z-score             5.2
 2  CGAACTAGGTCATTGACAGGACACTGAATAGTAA  PBM binding z-score            2.46
 3  TTACCAAAGTGAGCTGAGGTCGTTGATCCAACTC  PBM binding z-score           0.805
 4  CCAGACAGGTGAGCAGGTAACTCAGCCTCGATTA  PBM binding z-score          -0.115
 5  TAGCCTAGGTCAGAACGGGCCAGTATACGCTATA  PBM binding z-score            1.19
 6  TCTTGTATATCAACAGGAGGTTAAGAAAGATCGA  PBM binding z-score            1.25
 7  TCGAGTAGGTTACCAATGGGCCATTCAGCTTTCT  PBM binding z-score           0.688
 8  TCGAGTAGCTTAGTCGGGGCATTCAGCCAACATA  PBM binding z-score          -0.559
 9  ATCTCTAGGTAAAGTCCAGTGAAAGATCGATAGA  PBM binding z-score         -0.0378
10  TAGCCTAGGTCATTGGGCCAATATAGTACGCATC  PBM binding z-score            2.93
11  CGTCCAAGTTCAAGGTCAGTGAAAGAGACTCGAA  PBM binding z-score            3.82
12  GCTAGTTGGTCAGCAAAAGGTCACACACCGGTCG  PBM binding z-score            6.14
13  CGTCCAAGGTCAAGGTAAGTGAAAGAGACTCGAA  PBM binding z-score            5.48
14  AGAACGAGGGCACGCTGAGTTGATAGAAGAGTAG  PBM binding z-score            1.29
15  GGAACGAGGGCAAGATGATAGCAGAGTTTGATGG  PBM binding z-score           0.962
16  GCTGCTAGGTCTACTGATGGTCAGCTAAAGCTCG  PBM binding z-score          -0.738
17  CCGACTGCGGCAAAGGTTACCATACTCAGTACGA  PBM binding z-score            2.46
18  TCTGTTAGTTGAAGGGCAACCGACGAGTCCGTTT  PBM binding z-score           0.588
19  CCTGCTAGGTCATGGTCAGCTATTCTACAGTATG  PBM binding z-score            2.65
20  TCTTGTAGCTCAGCAGGTTAAGAAAGCTGGCCAA  PBM binding z-score          -0.011
21  CCTACTAGGCCACGAAAGGTCATTGATTCAGTGA  PBM binding z-score             5.5
22  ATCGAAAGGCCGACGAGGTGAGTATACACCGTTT  PBM binding z-score           0.344
23  TCTCGGAGTACACGAAAGGTCAGAGCTCGACATC  PBM binding z-score            3.87
24  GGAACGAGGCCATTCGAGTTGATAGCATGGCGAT  PBM binding z-score          -0.125
25  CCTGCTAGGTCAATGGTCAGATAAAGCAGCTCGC  PBM binding z-score            2.45
